experiment.notes: Photochromic properties of lens samples (2 mm, compound in the mass of cross-linked matrix I or II) exposed to UV radiation from a xenon lamp
Assay type: physicochemical
measurement.conditions: lens sample, Matrix II (50/50 D121 / PEGDMA 400 copolymer)
Parameter: λmax: the maximum absorption in the visible spectrum after UV irradiation. Scope: all listed entries.

These solved cases illustrate the format of a correct answer.
• COc1ccc(C2(c3ccc(OC)cc3OC)C=Cc3c(c(C(=O)N4CCc5ccccc54)cc4ccccc34)O2)c(OC)c1 = 514 nm
• COc1ccc(C2(c3ccc(OC)cc3OC)C=Cc3c(c(C(=O)N4CCCCC4)cc4ccccc34)O2)c(OC)c1 = 504 nm

Now, please, on to the next molecule.
Task item: Sample COc1ccc(C2(c3ccc(OC)c(OC)c3)C=Cc3c(c(C(=O)N4CCOCC4)cc4ccccc34)O2)c(OC)c1 (stereo not drawn) — what was its λmax: the maximum absorption in the visible spectrum after UV irradiation?
Reply: 512 nm
